# assay_notes: NCI Yeast Anticancer Drug Screen. Data for the sgs1 mgt1 strain (AID 161);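 note: 0% = growth of cultures given vehicle only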
# particulars: S. cerevisiae sgs1 mgt1 strain, at 50.0 µM
This is part of a sample that, as a whole, favours compounds with a hit. Of some 79,000 tested, about 15% had one in any assay. Activity calls are given as the source filed them. Cut-off read from the data, not from the text of the source: active = growth inhibition above about 70%; inactive = the rest.
Thanks in advance; please answer with one of these: active, inactive

Here are 5 compounds together with their reported answers.
{"compound": "CSC(=S)n1nc(-c2ccccc2)c(N=Nc2cccc(Cl)c2Cl)c1-c1ccccc1", "classification": "active"}
{"compound": "Cc1ccc(Cl)cc1NC(=O)Oc1ccc(C(C)(C)C)cc1Br", "classification": "inactive"}
{"compound": "O=C1C(O)=C(Cl)C(=O)C(OC2=C(Cl)C(=O)C(OC3=C(Cl)C(=O)C(OC4=C(Cl)C(=O)C(Cl)=C(Cl)C4=O)=C(Cl)C3=O)=C(Cl)C2=O)=C1Cl", "classification": "inactive"}
{"compound": "CC12CCC(C/C1=N\\O)C2(C)CBr (stereo unspecified)", "classification": "inactive"}
{"compound": "O=C(Nc1ccc2ccccc2c1)C1CC1", "classification": "inactive"}

In the following, a different compound is considered.
[Q] Check the results log: what was the call for Cc1ccc(C2OC2C(=O)c2ccccc2)cc1 (stereo unspecified) ?
[A] inactive

----------
# assay_notes: NCI Yeast Anticancer Drug Screen. Data for the cln2 rad14 strain (AID 165);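 note: 0% = growth equal to vehicle treated cultures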
# particulars: S. cerevisiae cln2 rad14 strain, at 50.0 µM, hits give high values
The panel holds about 79,000 compounds, 15% with a hit somewhere; the sample as a whole holds those more often.
parameter_measured: growth inhibition (%)
Give just the numeric value; % need not be written.

Record excerpt, results attached:
{"chemical_smiles": "Nc1c(Br)cc2c([nH]c(=O)c3cc(Br)ccc32)c1Br", "growth inhibition / %": 27.8}
{"chemical_smiles": "CCC(=O)c1ccc(OC(=O)Nc2ccc(Cl)cc2[N+](=O)[O-])cc1", "growth inhibition / %": -0.75}
{"chemical_smiles": "O=[N+]([O-])c1ccc(P(=O)(Nc2ccc(Cl)cc2)Nc2ccc(Cl)cc2)cc1", "growth inhibition / %": 91.8}
{"chemical_smiles": "CCCCCCc1c(N)nc(N)[nH]c1=O", "growth inhibition / %": -36.8}

[Q] Using known records, supply growth inhibition for "CCCCCCCCCCCCCCCCCCCOc1ccc(OCCCCCCCCCC)cc1"
[A] -10.4

[Q] Given the compound "CCOC(=O)NC(Nc1cccc(C(F)(F)F)c1)(C(F)(F)F)C(F)(F)F" , write its reported growth inhibition.
[A] 7.7

----------
# assay_notes: NCI Yeast Anticancer Drug Screen. Data for the cln2 rad14 strain (AID 165);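 note: 0% = growth equal to vehicle treated cultures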
# particulars: S. cerevisiae cln2 rad14 strain, at 50.0 µM, hits give high values
Compounds without any hit were thinned out: in the full panel of roughly 79,000, 15% have a hit.
Listed here are compounds together with their documented growth inhibition.
Report only the number, with the unit % understood.

Before answering, review these 4 worked examples.
{"compound": "O=[N+]([O-])c1ccc(NN=C2CCCCCC2)c([N+](=O)[O-])c1", "unit_label": "%", "reading": -99}
{"compound": "CCCNCC(O)c1cc(C(F)(F)F)nc2c(C(F)(F)F)cccc12 (stereo not given)", "unit_label": "%", "reading": -25.4}
{"compound": "O=c1cc(C=Nc2cccc(Br)c2)[nH]c(=S)[nH]1", "unit_label": "%", "reading": -24.8}
{"compound": "C=CC(C)(C)NC(C(=O)N1CCC[C@H]1c1nc(-c2nc(C(=O)OCC=C(C)C)c(C)o2)c(C)o1)C(C)C (stereo not given in full)", "unit_label": "%", "reading": -11.3}

[Q] Entry "CCOC(=O)c1c(-c2ccc([N+](=O)[O-])cc2)c(C#N)n(-c2ccccc2)c1C" needs its growth inhibition filled in; supply it.
[A] -7.95

----------
# assay_notes: NCI Yeast Anticancer Drug Screen. Data for the sgs1 mgt1 strain (AID 161);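 note: 0% = growth of cultures given vehicle only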
# particulars: S. cerevisiae sgs1 mgt1 strain, at 50.0 µM, hits give high values
This is part of a sample that, as a whole, favours compounds with a hit. Of some 79,000 tested, about 15% had one in any assay.
parameter_measured: growth inhibition (%)
// note: answer is a bare numeric in %

{"compound": "Cc1cc(OC(=O)c2ccccc2)c(C)c(C)c1OC(=O)c1ccccc1", "growth inhibition, %": 15.2}
{"compound": "O=C(Nc1ccccc1Cl)c1ccccc1O", "growth inhibition, %": -3.2}
{"compound": "COc1ccc(/C=N/NC(=O)c2ccccc2OC)cc1", "growth inhibition, %": 29.9}
{"compound": "COc1ccccc1NC(=O)/C(=C\\n1c(=S)[nH]c2ccc([N+](=O)[O-])cc21)C(C)=O", "growth inhibition, %": 2.55}
{"compound": "CNS(=O)(=O)c1ccc(N)cc1", "growth inhibition, %": 2.8}

[Q] Item "CCOC(=O)NC(=O)CC#N" : provide growth inhibition
[A] 13.4

[Q] Write down growth inhibition measured for item "COc1ccc(C(=O)N/N=C/c2cccc(OC)c2OC)cc1"
[A] -20.1

----------
Reported growth inhibition values are given for each entry in this list.
# assay_notes: NCI Yeast Anticancer Drug Screen. Data for the rad50 strain (AID 155);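 note: 0% = growth of vehicle-only cultures of the same strain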
# particulars: S. cerevisiae rad50 strain growth inhibition; at 50.0 µM; hits give high values
The panel holds about 79,000 compounds, 15% with a hit somewhere; the sample as a whole holds those more often.
Answer in %, number only, no unit symbol.

{"compound": "COC(=O)Nc1cccc(NC(=O)C(=O)O)c1", "growth inhibition, %": -0.1}
{"compound": "OCC(O)C(O)Cc1cnc(C(O)C(O)C(O)CO)cn1 (stereo not given)", "growth inhibition, %": 6.65}
{"compound": "O=C(O)c1cc(O)c(O)c(Cl)c1", "growth inhibition, %": 10.3}
{"compound": "O=C(NCCc1c(-c2ccccc2)[nH]c2ccccc12)C1CCCCC1", "growth inhibition, %": -10.6}
{"compound": "CC(=O)Nc1ncn(C)c1S(N)(=O)=O", "growth inhibition, %": -4.3}

[Q] Return reported growth inhibition. Input compound: "CCCCCC(=O)/C=C/Sc1n[nH]c(=O)[nH]c1=O"
[A] 60.5

[Q] Read off the recorded growth inhibition for "COC(=O)c1cc(OC)c(O)c(OC)c1"
[A] -1.3

[Q] Supply measured growth inhibition of "CCOC(=O)c1[nH]c2nc(N)ncc2c(=O)c1C" in your reply.
[A] -0.15

[Q] Output growth inhibition of "CC(C)(C)C(=O)C[n+]1ccccc1"
[A] 3.85

[Q] Assign growth inhibition to the following record: "S=C(NCN1CCOCC1)NCN1CCOCC1"
[A] -14.8

----------
growth inhibition overview
# assay_notes: NCI Yeast Anticancer Drug Screen. Data for the sgs1 mgt1 strain (AID 161);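 note: 0% = growth of cultures given vehicle only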
# particulars: S. cerevisiae sgs1 mgt1 strain, at 50.0 µM, hits give high values
Compounds without any hit were thinned out: in the full panel of roughly 79,000, 15% have a hit.
Field: numeric (%). Do not append units.

Known results for compounds:
{"chemical_smiles": "CCOC(=O)c1ccc(N)cc1", "unit_label": "%", "growth inhibition": -3.1}
{"chemical_smiles": "CCCOC(=O)COc1ccccc1", "unit_label": "%", "growth inhibition": -4.3}
{"chemical_smiles": "O=[N+]([O-])c1ccc(O)c(N=Cc2ccc(C=Nc3cc([N+](=O)[O-])ccc3O)cc2)c1", "unit_label": "%", "growth inhibition": -13.8}

The record that follows has no growth inhibition shown yet.
[Q] Entry "CC(/C=N\Nc1ccc([N+](=O)[O-])cc1)=N/N=C(N)N" needs its growth inhibition filled in; supply it.
[A] 9.55

----------
# assay_notes: NCI Yeast Anticancer Drug Screen. Data for the cln2 rad14 strain (AID 165);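 note: 0% = growth equal to vehicle treated cultures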
# particulars: S. cerevisiae cln2 rad14 strain, at 50.0 µM, hits give high values
This is part of a sample that, as a whole, favours compounds with a hit. Of some 79,000 tested, about 15% had one in any assay.
Below, each entry is listed with its recorded growth inhibition.
Respond numerically; units are % and should not be typed.

{"compound": "CC(=O)Nc1ccc(S(=O)(=O)Nc2cccc3ccccc23)cc1", "reading": 42.8}
{"compound": "COc1ccc(CCNC(=S)NCCc2ccc(OC)c(OC)c2)cc1OC", "reading": 20.2}
{"compound": "C/C(N)=N/OCc1ccccc1", "reading": 4.7}
{"compound": "CNc1nc(=S)nc(-c2ccccc2)s1", "reading": -8.45}
{"compound": "CC1c2c(Cl)nc3ccccc3c2Oc2c1c(Cl)nc1ccccc21", "reading": 18.3}
{"compound": "Cc1ccc(Cl)cc1NC(=S)N(C)C", "reading": 3.75}

[Q] Find the measured growth inhibition of "C1CSCCSCSCCS1" and report it.
[A] 30.7

[Q] Look up and report measured growth inhibition for this entry: CCOC(=O)C(O)Cc1cnc2ccccc2n1 (configuration not stated)
[A] -13.3

[Q] Give reported growth inhibition value for "Br/C=C/c1ccccc1"
[A] -14.7

[Q] Specify reported growth inhibition for the compound shown: "Cc1c(C=O)cc(-c2ccccc2)n1C"
[A] -8.45

[Q] Please give the documented growth inhibition of O=NN(CCCl)C(=O)NC1CCC(CC2CCC(NC(=O)N(CCCl)N=O)CC2)CC1 (configuration not stated)
[A] 29.5
